system: KARPAS-299; test: cells; details: Homo sapiens, KARPAS-299, 72 h
Description: Antiproliferative activity against human KARPAS299 cells expressing NMP-ALK assessed as reduction in cell viability incubated for 72 hrs by MTT assay
pIC50: −log10 of the molar value.
measured.property: pIC50

Here is how some compounds turned out for pIC50.
compound	pIC50
CC(Oc1cc(-c2ccn(C)c(=O)c2)cnc1N)c1ccccc1 (stereo not given)	5.54
C[C@@H](Sc1cc(-c2cc[nH]c(=O)c2)cnc1N)c1c(Cl)ccc(F)c1Cl	6.14
CC(Oc1cc(-c2ccn(C)c(=O)c2)cnc1N)c1ccccn1 (stereo not given)	4.92
Cc1ccc(C(C)Oc2cc(-c3cc[nH]c(=O)c3)cnc2N)cc1 (stereo not given)	4.99
C[C@@H](Oc1cc(-c2cc[nH]c(=O)c2)cnc1N)c1c(Cl)ccc(F)c1Cl	7.30
CCn1ccc(-c2cnc(N)c(O[C@H](C)c3c(Cl)ccc(F)c3Cl)c2)cc1=O	7.22
CC(Oc1cc(-c2ccn(C)c(=O)c2)cnc1N)c1ccc(Cl)cc1 (stereo not given)	4.68
CCCn1ccc(-c2cnc(N)c(O[C@H](C)c3c(Cl)ccc(F)c3Cl)c2)cc1=O	6.96
CC(Oc1cc(-c2ccn(C)c(=O)c2)cnc1N)c1cccnc1 (stereo not given)	4.95
CC(Oc1cc(-c2ccn(Cc3ccccc3)c(=O)c2)cnc1N)c1c(Cl)ccc(F)c1Cl (racemic)	6.49

P. CC(Oc1cc(-c2cc[nH]c(=O)c2)cnc1N)c1c(Cl)ccc(F)c1Cl (racemic)
Q. CC(Oc1cc(-c2cc[nH]c(=O)c2)cnc1N)c1ccccc1 (stereo not given)
For the pair P and Q , which member has the lower pIC50 number? Give the chosen item's label as your response. Q
(Q: 5.36, P: 6.92)

---

system: SH-SY5Y; assay: cells; details: Homo sapiens, 72 h
Description: Antiproliferative activity against human SH-SY5Y cells expressing ALK F1174L mutant assessed as reduction in cell viability incubated for 72 hrs by MTT assay
pIC50: −log10 of the molar value.
measured.property: pIC50

The cases that follow already have their pIC50 on record.
smiles.input	experimental.target	pIC50
C[C@@H](Oc1cc(-c2ccn(C)c(=O)c2)cnc1N)c1c(Cl)ccc(F)c1Cl	SH-SY5Y	5.73
C[C@@H](Oc1cc(-c2cc[nH]c(=O)c2)cnc1N)c1c(Cl)ccc(F)c1Cl	SH-SY5Y	5.68
CCOC(=O)Cn1ccc(-c2cnc(N)c(O[C@H](C)c3c(Cl)ccc(F)c3Cl)c2)cc1=O	SH-SY5Y	5.73
C[C@@H](Oc1cc(-c2ccn(CCN(C)C)c(=O)c2)cnc1N)c1c(Cl)ccc(F)c1Cl	SH-SY5Y	5.78
CCCn1ccc(-c2cnc(N)c(O[C@H](C)c3c(Cl)ccc(F)c3Cl)c2)cc1=O	SH-SY5Y	5.67

I. CCn1ccc(-c2cnc(N)c(O[C@H](C)c3c(Cl)ccc(F)c3Cl)c2)cc1=O
II. C[C@@H](Oc1cc(-c2ccn(Cc3ccccc3)c(=O)c2)cnc1N)c1c(Cl)ccc(F)c1Cl
Endpoint returns whichever of I and II has the numerically higher pIC50. Mark your selection by writing its label. II
(II: 5.87, I: 5.60)

---

tested on: KARPAS-299; experiment: cells; conditions: Homo sapiens, KARPAS-299, 72 h
measured.property: IC50 (nM)

Below are worked cases with known answers.
molecule	readout.units	IC50
C[C@@H](Oc1cc(-c2ccn(Cc3ccccc3)c(=O)c2)cnc1N)c1c(Cl)ccc(F)c1Cl	nM	130
CC(Oc1cc(-c2ccn(C)c(=O)c2)cnc1N)c1c(Cl)ccc(F)c1Cl (racemic)	nM	200
Cc1ccc(C(C)Oc2cc(-c3ccn(C)c(=O)c3)cnc2N)cc1 (stereo not drawn)	nM	7780
C[C@@H](Sc1cc(-c2ccn(CCN(C)C)c(=O)c2)cnc1N)c1c(Cl)ccc(F)c1Cl	nM	280

P. C[C@@H](Sc1cc(-c2ccn(C)c(=O)c2)cnc1N)c1c(Cl)ccc(F)c1Cl
Q. C[C@@H](Sc1cc(-c2ccn(Cc3ccccc3)c(=O)c2)cnc1N)c1c(Cl)ccc(F)c1Cl
# return whichever of P and Q has the smaller IC50 Lab log: write the label of the selected item as the result. P
